All figures here come from ChEMBL document CHEMBL3351959.

- assaySystem: UniProt P41144
- Sequence (P41144 whole entry): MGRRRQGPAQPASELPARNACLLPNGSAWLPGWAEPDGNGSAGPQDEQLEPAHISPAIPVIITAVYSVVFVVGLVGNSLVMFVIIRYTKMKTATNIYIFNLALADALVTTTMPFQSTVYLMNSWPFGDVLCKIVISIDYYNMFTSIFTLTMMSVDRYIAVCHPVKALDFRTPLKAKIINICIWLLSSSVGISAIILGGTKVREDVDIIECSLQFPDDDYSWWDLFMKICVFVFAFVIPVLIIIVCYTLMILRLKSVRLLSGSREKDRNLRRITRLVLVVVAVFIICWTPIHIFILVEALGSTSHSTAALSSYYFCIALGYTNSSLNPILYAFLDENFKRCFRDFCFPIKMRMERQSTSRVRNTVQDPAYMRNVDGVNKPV
- assayProcedure: Displacement of [3H]nor-BNI from KOR in guinea pig brain membranes
recordedMetric: pIC50
Numbers only, as −log10 of the molar value.

Req: Need pIC50 of NC(=O)[C@H](Cc1ccccc1)NC(=O)[C@H](Cc1ccccc1)NC(=O)[C@H]1CN(C(=O)[C@@H](N)Cc2ccc(O)cc2)C[C@@H]1c1ccccc1 (mixture of isomers) , thanks.
Resp: 7.57

====

Consider the following molecules; for each one, report its IC50.
- assaySystem: Mu-type opioid receptor (Rattus norvegicus)
- Sequence (P33535 whole entry): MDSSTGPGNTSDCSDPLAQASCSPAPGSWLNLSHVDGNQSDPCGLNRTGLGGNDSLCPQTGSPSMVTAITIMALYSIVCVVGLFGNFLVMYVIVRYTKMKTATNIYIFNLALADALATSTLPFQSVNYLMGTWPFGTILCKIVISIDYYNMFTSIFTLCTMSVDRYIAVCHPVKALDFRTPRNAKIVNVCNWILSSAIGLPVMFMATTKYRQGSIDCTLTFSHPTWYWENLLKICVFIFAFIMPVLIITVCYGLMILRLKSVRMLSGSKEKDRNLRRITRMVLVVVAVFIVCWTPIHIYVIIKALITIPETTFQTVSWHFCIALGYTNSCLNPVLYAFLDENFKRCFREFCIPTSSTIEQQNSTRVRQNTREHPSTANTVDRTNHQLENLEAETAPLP
- assayProcedure: Displacement of [3H]DAMGO from MOR in rat brain membranes
Numbers only, in nM.

Count: 2. Required value per item: IC50.
1. NC(=O)[C@H](Cc1ccccc1)NC(=O)[C@H](Cc1ccccc1)NC(=O)[C@H]1CN(C(=O)[C@@H](N)Cc2ccc(O)cc2)C[C@@H]1c1ccccc1 (mixture of isomers)
2. NC(=O)[C@H](Cc1ccccc1)NC(=O)[C@H](Cc1ccccc1)NC(=O)[C@@H]1CN(C(=O)[C@@H](N)Cc2ccc(O)cc2)C[C@H]1c1ccccc1 (mixture of isomers)

Resp:
[0.85, 2.91]

====

- assaySystem: Delta-type opioid receptor (Rattus norvegicus)
- Sequence (P33533 whole entry): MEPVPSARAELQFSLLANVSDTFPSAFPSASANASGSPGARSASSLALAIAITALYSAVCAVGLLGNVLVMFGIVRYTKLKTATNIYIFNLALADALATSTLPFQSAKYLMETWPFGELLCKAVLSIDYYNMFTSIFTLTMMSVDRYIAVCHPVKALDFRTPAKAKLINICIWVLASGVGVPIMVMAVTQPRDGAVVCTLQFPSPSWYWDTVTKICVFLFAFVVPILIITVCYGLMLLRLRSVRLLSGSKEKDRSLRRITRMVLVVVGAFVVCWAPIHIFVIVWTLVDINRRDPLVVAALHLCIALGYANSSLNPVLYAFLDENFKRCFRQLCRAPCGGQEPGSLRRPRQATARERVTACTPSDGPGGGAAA
- assayProcedure: Displacement of [3H](Ile5,6)deltorphin-2 from DOR in rat brain membranes
recordedMetric: IC50 (nM)
Numbers only, in nM.

Req: Need IC50 of NC(=O)[C@H](Cc1ccccc1)NC(=O)[C@H](Cc1ccccc1)NC(=O)[C@H]1CN(C(=O)[C@@H](N)Cc2ccc(O)cc2)C[C@@H]1c1ccccc1 (mixture of isomers) , thanks.
Resp: 9.06

====

- assayProcedure: Half life in rat brain homogenate by RP-HPLC analysis
- Assay type: ADME, tissue-based
recordedMetric: half-life (min)
Numbers only, in min.

As a guide, the following entries are already answered.
- compound: "NC(=O)[C@H](Cc1ccccc1)NC(=O)[C@H](Cc1ccccc1)NC(=O)[C@@H]1CN(C(=O)[C@@H](N)Cc2ccc(O)cc2)C[C@H]1c1ccccc1 (mixture of isomers)"
  half-life (min): 38.3
- compound: "NC(=O)[C@H](Cc1ccccc1)NC(=O)[C@H](Cc1ccccc1)NC(=O)[C@H]1CN(C(=O)[C@@H](N)Cc2ccc(O)cc2)C[C@@H]1c1ccccc1 (mixture of isomers)"
  half-life (min): 32.5

Here is the next item to consider.
Req: Need half-life of NC(=O)[C@H](Cc1ccccc1)NC(=O)[C@H](Cc1ccccc1)NC(=O)[C@@H]1CCCN1C(=O)[C@@H](N)Cc1ccc(O)cc1 [ENDOMORPHIN 2] , thanks.
Resp: 6
